B1: PKD2L1 (parent)
chain: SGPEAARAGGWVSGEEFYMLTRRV

# Variants of: B1
# protocol_summary: protein stability index of a GFP-peptide fusion (GPS, HEK-293T) (PSI 1-6); higher = more stable;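 note: lentivirally expressed fusions sorted by FACS into six bins by GFP to DsRed ratio, PSI derived from sequencing read proportions per bin multiplied by bin number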
# condition_notes: c terminus: a fixed tail appended
Record Y whenever protein stability index is at 3 or higher; record N when lower.

The following variants have reported results that may help.
V24R: N
A8W: N
S13K: N
G9T: N
E15H: N

Query variant follows.
Hello, I need to know if S1W has measured protein stability index not below 3. Thanks!
N
